The measured values listed here are drawn from patent US20250064789A1.

# system tested: recombinant SARS-CoV-2 M^pro (Severe acute respiratory syndrome coronavirus 2 (2019-nCoV) (SARS-CoV-2), UniProt P0DTD1)
# protocol details: Inhibition of SARS-CoV-2 M^pro enzyme activity (fluorescent substrate assay)
# Type: biochemical
# reported conditions: inhibition of SARS-CoV-2 M^pro enzyme activity; values given in μM; read-out: IC50
Listed next: entries and their corresponding IC50.
// units = µM; emit number, no label

Example results:
- smiles text: "C[C@@H](NC(=O)c1ccccn1)C(=O)N[C@H](Cc1ccccc1)C(=O)C(=O)NCc1ccccn1"
  value unit: "µM"
  IC50: 1.16
- smiles text: "C[C@@H](NC(=O)C1CCC(F)(F)CC1)C(=O)N[C@H](Cc1ccccc1)C(=O)C(=O)NCc1ncccc1Cl"
  value unit: "µM"
  IC50: 11.5
- smiles text: "C[C@@H](NC(=O)C1CCC(F)(F)CC1)C(=O)N[C@H](Cc1ccccc1)C(=O)C(=O)NCc1ncco1"
  value unit: "µM"
  IC50: 2.5
- smiles text: "O=C(NCc1cnc(Cl)s1)C(=O)[C@@H](Cc1ccccc1)NC(=O)c1ccccc1"
  value unit: "µM"
  IC50: 95.2
- smiles text: "O=C(CNC(=O)c1cccnc1)N[C@H](Cc1ccccc1)C(=O)C(=O)NCc1nccs1"
  value unit: "µM"
  IC50: 2.23

For the molecule shown here, O=C(NCc1nccs1)C(=O)[C@@H](Cc1ccccc1F)NC(=O)c1ccccc1 , give the reported IC50. 3.5

Query: IC50; subject: O=C(NCc1nccs1)C(=O)[C@@H](Cc1cccc(F)c1)NC(=O)c1ccccc1 2.55

Dear colleague, I am looking for the recorded IC50 of the following molecule: O=C(NCc1nccs1)C(=O)[C@@H](Cc1ccc(Cl)c(Cl)c1)NC(=O)c1ccccc1 2.03

###

# system tested: recombinant SARS-CoV-2 M^pro (Severe acute respiratory syndrome coronavirus 2 (2019-nCoV) (SARS-CoV-2), UniProt P0DTD1)
# protocol details: Inhibition of SARS-CoV-2 M^pro enzyme activity (fluorescent substrate assay)
# Format: biochemical
# reported conditions: inhibition of SARS-CoV-2 M^pro enzyme activity; values in nM; read-out: IC50
readout type: IC50
Reply with the number and its unit after it.

- compound: "C[C@@H](NC(=O)C1CCC(F)(F)CC1)C(=O)N[C@H](Cc1ccccc1)C(=O)C(=O)NCc1ccccn1 [Compound 145]"
  IC50: "17.1 nM"
- compound: "O=C(Cn1cc(-c2cccc(OC(F)(F)F)c2)cn1)N[C@H](Cc1ccccc1)C(=O)C(=O)NCc1nccs1"
  IC50: "82.5 nM"
- compound: "O=C(NCc1ccccn1)C(=O)[C@@H](Cc1ccccc1)NC(=O)[C@H]1CCCCN1C(=O)[C@@H]1C[C@@H]2[C@H](C1)C2(F)F"
  IC50: "16.3 nM"
- compound: "CC(C)c1ccc(OCC(=O)N[C@H](C)C(=O)N[C@H](Cc2ccccc2)C(=O)C(=O)NCc2ccccn2)cc1"
  IC50: "12.4 nM"
- compound: "O=C(NCc1ccccn1)C(=O)[C@@H](Cc1ccccc1)NC(=O)[C@@H](CC1CCCCC1)NC(=O)C1CCC(F)(F)CC1"
  IC50: "13.9 nM"
- compound: "O=C(CC1CCC(F)(F)CC1)NC1(C(=O)N[C@H](Cc2ccccc2)C(=O)C(=O)NCc2ccccn2)CC1"
  IC50: "13.5 nM"

Switching to the query record.
Reported IC50, compound C[C@@H](NC(=O)CCc1ccccc1)C(=O)N[C@H](Cc1ccccc1)C(=O)C(=O)NCc1ccccn1 : ____ 11.7 nM
